Biological target: 5-HT1AR (Homo sapiens, UniProt P08908)
Test: Radioligand binding assay, [3H]-8-OH-DPAT displacement
Conditions: Ki 5-HT1AR
parameter: Ki (nM)

* COc1ccc2[nH]cc(CCNCc3c[nH]c4ccccc34)c2c1 | 156

* * *

Target: D2R (Homo sapiens, UniProt P14416)
Sequence (P14416 whole entry): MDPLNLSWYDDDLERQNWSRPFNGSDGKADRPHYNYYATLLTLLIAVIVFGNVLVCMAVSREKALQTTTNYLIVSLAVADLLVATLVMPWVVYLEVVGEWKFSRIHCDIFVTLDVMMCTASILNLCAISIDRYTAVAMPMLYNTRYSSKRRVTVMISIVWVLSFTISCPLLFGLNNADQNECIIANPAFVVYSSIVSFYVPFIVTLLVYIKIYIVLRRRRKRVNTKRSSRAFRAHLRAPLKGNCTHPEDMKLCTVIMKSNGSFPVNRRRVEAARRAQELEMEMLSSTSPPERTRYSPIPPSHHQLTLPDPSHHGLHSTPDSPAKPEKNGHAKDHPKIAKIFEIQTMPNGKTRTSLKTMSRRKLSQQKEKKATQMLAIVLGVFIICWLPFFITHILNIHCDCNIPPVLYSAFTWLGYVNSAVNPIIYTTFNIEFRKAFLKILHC
Assay: D2R functional assay, antagonist mode (cAMP, HEK293 cells)
Assay type: cell-based
Parameters: expressed in transfected cells
Conditions: antagonistic mode, 100 nM quinpirole; read-out: D2 Kb
parameter: Kb

- Brc1ccc2c(CNCCc3c[nH]c4ccccc34)c[nH]c2c1: 109 nM
- Clc1ccc2c(CCNCc3c[nH]c4ccccc34)c[nH]c2c1: 104 nM
- Clc1ccc2c(CNCCc3c[nH]c4ccccc34)c[nH]c2c1: 290 nM
- Clc1cccc2c(CNCCc3c[nH]c4ccccc34)c[nH]c12: 215 nM

* * *

Biological target: Human Serotonin 5-HT6R (Homo sapiens, UniProt P50406)
Construct: host or cells: 1321N1 (frozen recombinant cells)
Sequence (P50406 whole entry): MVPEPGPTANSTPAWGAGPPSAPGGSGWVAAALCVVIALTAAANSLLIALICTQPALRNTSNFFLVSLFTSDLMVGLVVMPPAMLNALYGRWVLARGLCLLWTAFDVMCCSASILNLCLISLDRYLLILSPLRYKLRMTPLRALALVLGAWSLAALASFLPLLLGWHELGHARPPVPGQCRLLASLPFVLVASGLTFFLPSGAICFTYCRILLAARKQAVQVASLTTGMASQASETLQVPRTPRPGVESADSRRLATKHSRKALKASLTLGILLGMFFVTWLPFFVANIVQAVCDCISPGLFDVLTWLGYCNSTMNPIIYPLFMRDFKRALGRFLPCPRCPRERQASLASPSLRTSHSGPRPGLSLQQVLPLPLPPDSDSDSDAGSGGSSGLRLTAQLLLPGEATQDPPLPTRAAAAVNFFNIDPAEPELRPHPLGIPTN
Assay: 5-HT6R functional assay, antagonistic mode (cAMP induced by 5-CT, 1321N1 cells)
Assay type: cell-based
Conditions: antagonistic mode, 5-CT 1000 nM; read-out: 5-HT6 Kb
Entries and their Kb values follow.
parameter: Kb (nM)

* Clc1ccc2c(CNCCc3c[nH]c4ccccc34)c[nH]c2c1 | 112
* Clc1ccc2c(CCNCc3c[nH]c4ccccc34)c[nH]c2c1 | 136
* c1ccc2c(CCNCc3c[nH]c4ccccc34)c[nH]c2c1 | 151
* Brc1ccc2c(CNCCc3c[nH]c4ccccc34)c[nH]c2c1 | 131
* Clc1cccc2c(CNCCc3c[nH]c4ccccc34)c[nH]c12 | 234

* * *

Molecular target: 5-HT2AR (Homo sapiens, UniProt P28223)
Assay: Radioligand binding assay, [3H]-ketanserin displacement
Parameters: host or cells: CHO-K1; membrane preparation
Conditions: pKi 5-HT2A, Table 1
pKi: −log10 of the molar value.
parameter: pKi

• COc1ccc2[nH]cc(CCNCc3c[nH]c4ccccc34)c2c1 = 7.08
• c1ccc2c(CCNCc3c[nH]c4ccccc34)c[nH]c2c1 = 7.70
• Fc1ccc2c(CNCCc3c[nH]c4ccccc34)c[nH]c2c1 = 5.59
• Brc1cccc2c(CNCCc3c[nH]c4ccccc34)c[nH]c12 = 5.40

* * *

Experiment: in vitro
Details: PAMPA, pH 7.4
Entries and their Papp at 5 h, 200 µM values follow.
parameter: Papp at 5 h, 200 µM (×10⁻⁶ cm/s)

• Brc1ccc2c(CNCCc3c[nH]c4ccccc34)c[nH]c2c1 = 2.42
• Clc1cccc2c(CNCCc3c[nH]c4ccccc34)c[nH]c12 = 8.42
• Clc1ccc2c(CCNCc3c[nH]c4ccccc34)c[nH]c2c1 = 7.09
• Clc1ccc2c(CNCCc3c[nH]c4ccccc34)c[nH]c2c1 = 8.34

* * *

Record: pKi reported on UniProt P34969.
pKi: −log10 of the molar value.
parameter: pKi

- Fc1ccc2[nH]cc(CNCCc3c[nH]c4ccccc34)c2c1: 5.32
- COc1ccc2[nH]cc(CCNCc3c[nH]c4ccccc34)c2c1: 6.25
- Clc1ccc2c(CCNCc3c[nH]c4c(Cl)cccc34)c[nH]c2c1: 4.88
- COc1ccc2[nH]cc(CCNCc3c[nH]c4cc(Cl)ccc34)c2c1: 6.09
- Brc1cccc2c(CCNCc3c[nH]c4ccccc34)c[nH]c12: 4.69
- Oc1ccc2[nH]cc(CNCCc3c[nH]c4ccccc34)c2c1: 5.29
- Fc1ccc2c(CNCCc3c[nH]c4ccccc34)c[nH]c2c1: 4.74
- Brc1ccc2c(CNCCc3c[nH]c4ccccc34)c[nH]c2c1: 5.33
- Fc1cccc2c(CCNCc3c[nH]c4ccccc34)c[nH]c12: 4.99
- Cc1ccc2[nH]cc(CCNCc3c[nH]c4ccccc34)c2c1: 5.53
- Clc1ccc2c(CCNCc3c[nH]c4ccccc34)c[nH]c2c1: 4.80

* * *

Assay: PAMPA permeability assay
Conditions: PAMPA, pH 7.4
parameter: Papp at 5 h, 200 µM (×10⁻⁶ cm/s)

- Brc1cccc2c(CNCCc3c[nH]c4ccccc34)c[nH]c12: 3.9

* * *

Biological target: 5-HT1AR (Homo sapiens)
Sequence (P08908 1-422): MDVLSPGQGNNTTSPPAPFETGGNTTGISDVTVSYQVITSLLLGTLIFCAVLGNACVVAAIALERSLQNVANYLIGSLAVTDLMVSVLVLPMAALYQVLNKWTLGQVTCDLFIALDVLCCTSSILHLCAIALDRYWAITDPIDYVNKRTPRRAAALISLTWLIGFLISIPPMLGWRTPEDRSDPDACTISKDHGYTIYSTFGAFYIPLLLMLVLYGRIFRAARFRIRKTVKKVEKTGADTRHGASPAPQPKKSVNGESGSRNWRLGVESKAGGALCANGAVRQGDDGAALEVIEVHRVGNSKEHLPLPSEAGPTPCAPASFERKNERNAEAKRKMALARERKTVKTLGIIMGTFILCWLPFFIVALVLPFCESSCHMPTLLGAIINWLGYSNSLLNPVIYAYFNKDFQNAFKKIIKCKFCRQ
Assay: Radioligand binding assay, [3H]-8-OH-DPAT displacement
Details: pKi 5-HT1A, Table 1
Entries and their Ki values follow.
parameter: Ki (nM)

• Ic1ccc2[nH]cc(CNCCc3c[nH]c4ccccc34)c2c1 = 490
• Cc1ccc2[nH]cc(CCNCc3c[nH]c4ccccc34)c2c1 = 692
• Clc1ccc2c(CCNCc3c[nH]c4c(Cl)cccc34)c[nH]c2c1 = 5620
• Clc1ccc2c(CCNCc3c[nH]c4ccccc34)c[nH]c2c1 = 3310
• Brc1cccc2c(CCNCc3c[nH]c4ccccc34)c[nH]c12 = 6030
• Clc1ccc2[nH]cc(CNCCc3c[nH]c4ccccc34)c2c1 = 676
• Clc1cccc2c(CNCCc3c[nH]c4ccccc34)c[nH]c12 = 282
• COc1ccc2[nH]cc(CCNCc3c[nH]c4cc(Cl)ccc34)c2c1 = 186
• Fc1cccc2c(CCNCc3c[nH]c4ccccc34)c[nH]c12 = 2750
• Oc1ccc2[nH]cc(CNCCc3c[nH]c4ccccc34)c2c1 = 2880
• Clc1cccc2c(CCNCc3c[nH]c4ccccc34)c[nH]c12 = 5130
• Fc1cccc2c(CNCCc3c[nH]c4ccccc34)c[nH]c12 = 5620
• Clc1ccc2c(CNCCc3c[nH]c4ccccc34)c[nH]c2c1 = 1070
• Brc1ccc2c(CNCCc3c[nH]c4ccccc34)c[nH]c2c1 = 977
• Fc1ccc2[nH]cc(CNCCc3c[nH]c4ccccc34)c2c1 = 490
• c1ccc2c(CCNCc3c[nH]c4ccccc34)c[nH]c2c1 = 1510
• COc1ccc2[nH]cc(CCNCc3c[nH]c4ccccc34)c2c1 = 155
• c1ccc(COc2cccc3c(CNCCc4c[nH]c5ccccc45)c[nH]c23)cc1 = 741

* * *

Target: 5-HT7R (Homo sapiens)
Sequence (P34969 1-432): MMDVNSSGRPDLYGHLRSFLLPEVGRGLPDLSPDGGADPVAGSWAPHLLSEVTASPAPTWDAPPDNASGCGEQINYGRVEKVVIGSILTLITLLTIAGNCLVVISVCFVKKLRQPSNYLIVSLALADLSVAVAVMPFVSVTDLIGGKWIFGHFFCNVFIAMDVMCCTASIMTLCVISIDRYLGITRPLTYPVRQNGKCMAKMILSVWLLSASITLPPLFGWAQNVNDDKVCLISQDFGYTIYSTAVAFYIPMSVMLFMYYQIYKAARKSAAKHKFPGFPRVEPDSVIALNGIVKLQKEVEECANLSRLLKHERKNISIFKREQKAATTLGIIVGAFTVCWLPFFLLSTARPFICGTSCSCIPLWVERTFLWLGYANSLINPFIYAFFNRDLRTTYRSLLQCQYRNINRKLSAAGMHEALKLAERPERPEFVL
pKi: −log10 of the molar value.
Each entry gets n if its pKi stays under 5, and y if its pKi is 5 or above.

• Clc1cccc2c(CCNCc3c[nH]c4ccccc34)c[nH]c12 = n
• Ic1ccc2[nH]cc(CNCCc3c[nH]c4ccccc34)c2c1 = y
• Brc1cccc2c(CNCCc3c[nH]c4ccccc34)c[nH]c12 = y
• Clc1cccc2c(CNCCc3c[nH]c4ccccc34)c[nH]c12 = y

* * *

Entries and their pKi values follow.
Target: 5-HT1AR (Homo sapiens, UniProt P08908)
Sequence (P08908 1-422): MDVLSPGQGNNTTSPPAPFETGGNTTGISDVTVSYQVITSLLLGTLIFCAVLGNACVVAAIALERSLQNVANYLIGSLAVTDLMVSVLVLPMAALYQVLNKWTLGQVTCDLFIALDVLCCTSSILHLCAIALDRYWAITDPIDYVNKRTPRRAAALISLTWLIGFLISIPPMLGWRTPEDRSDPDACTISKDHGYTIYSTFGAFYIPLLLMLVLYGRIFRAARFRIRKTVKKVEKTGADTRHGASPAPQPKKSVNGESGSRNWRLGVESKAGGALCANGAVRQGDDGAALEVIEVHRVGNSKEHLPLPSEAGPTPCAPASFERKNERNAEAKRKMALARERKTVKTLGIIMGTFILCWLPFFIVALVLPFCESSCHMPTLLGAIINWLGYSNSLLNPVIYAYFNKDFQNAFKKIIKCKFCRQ
Assay: Radioligand binding assay, [3H]-8-OH-DPAT displacement
pKi: −log10 of the molar value.
parameter: pKi

- Brc1cccc2c(CNCCc3c[nH]c4ccccc34)c[nH]c12 [Compound 18]: 6.52
- Fc1ccc2c(CNCCc3c[nH]c4ccccc34)c[nH]c2c1 [Compound 13]: 5.87
- COc1ccc2[nH]cc(CCNCc3c[nH]c4c(Cl)cccc34)c2c1 [Compound 20]: 7.10
